# System: Saccharomyces cerevisiae
# assay explanation: transcriptional activation domain activity (GFP:mCherry ratio, weighted mean of sorted bins, harmonized to initial dataset scale) (arbitrary fluorescence ratio units); higher = stronger transcriptional activation
# test context: beta-estradiol 1 µM; induction time 4 h
measured parameter: transcriptional activation domain activity
Lab note: record just the number, no unit beside it.

Per the record, THHAFPLRLLVAIVVLLDCHSLLQIALGTCTWAISYHVRPFALTTVILCCSIT has transcriptional activation domain activity of 41300

Per the record, VGRLVWFVTLLHVLFWVVQVLKDRRALTGKLVFAYVWQYQKFRFAWVAFLSMT has transcriptional activation domain activity of 75200

Per the record, LQCLLLSVLSPIGLVLLYSHLIGTDLIVIVSQLMFDYQVVQSWFIIFVCLVYW has transcriptional activation domain activity of 57400

Per the record, GDEDEEDTAELKEEALKGLIAVLVCASVLSIVRALMHSQLDLSILELLVDNMT has transcriptional activation domain activity of 53600

Per the record, MSWQKVHSLFFLYFILPHGGFLFLVIRNIFFFFTYDLVLLWSFKFLLHLYVIF has transcriptional activation domain activity of 59800

Per the record, VGKSCGRCRFPICYNPRGTCICCALRSNIVIPWMHFAYRNPHDRKPFVLHFTF has transcriptional activation domain activity of 41700

Per the record, MPRHLYLIYILYILMTWGLYLILLQVIFIITMLMIFIYPFSIYLFKFQHIRSL has transcriptional activation domain activity of 49500

Per the record, RLFGRGQWTLGRVIFFVFFYFNVAPLMLGVSMVCWFMVFWIPMGRVTLILFYH has transcriptional activation domain activity of 85300

Per the record, PLIPHVLPSLFPCPLFLPLFPPSPLLSPFPPSLCFPLPPFFLFPPLPLFPPFL has transcriptional activation domain activity of 25600

Per the record, KQYCVRPNSGRIEPGREVEVSVLLQAMKQEPAPDARCRDKFLVQSVTITSDQE has transcriptional activation domain activity of 20500

Per the record, SHSGVSRSGKRDASRSTSASGLGRNNGNASASGNGSRKGKRRSEGAGGRGKRV has transcriptional activation domain activity of 13500

Per the record, MIRFPCLLLYIFAMVYLGVLFFSFFDSCFFFFLHLLGAGWVVHFFLDIFFFYI has transcriptional activation domain activity of 70600

Per the record, QGAAKAVFEPHFSQKDDEGNIIKKKFAVACRVRNCTKLDRMTVISALAAAVGQ has transcriptional activation domain activity of 46500

Per the record, MLHGSGAVFGSGFLSLVSLVLWLISYYCCTWTWKGIFILSICFFNTCIYIECI has transcriptional activation domain activity of 49800

Per the record, RFLLCLLCMELLLHFVYVGAINSSLPVWDSYTPAQLSLLSFQNLIIIWLKLLL has transcriptional activation domain activity of 36800

Per the record, SSGGEKGGAKETEKTPKWYVDGIRYGRATDMKLVKHLISLRVHLSTASLVWIE has transcriptional activation domain activity of 86800

Per the record, MIIFFFFFFLLCHWINTGIIFHVLDLMVKFLFFIFVDQQKKLSLLLFIHFAWL has transcriptional activation domain activity of 54700

Per the record, EEEESAAAAKKMAAVKTRKARAGSPKTKSARKATSTRPTSKTKGGAKAKRAAA has transcriptional activation domain activity of 20900

Per the record, KSRKRAKKSPEESEVESKHRRRRSRKAVEDENDENSHCKRTKKVAGAESEKAV has transcriptional activation domain activity of 19700

Per the record, MEFGSWGWKSIFFIFFSFRDFMVWHGGVSFFLPYINDFYIFVLIFYCFIYSAS has transcriptional activation domain activity of 59800

Per the record, MGVCGVFISFLAWGGCLVLLNVRLHLRGLIFSLSNLFYDTVHVTCIWFFLFRL has transcriptional activation domain activity of 65300

Per the record, KRRGDQGKEQDRKGGEGGEEERGNGARGGGSARKEGDKGGEQKEGGRQRERAG has transcriptional activation domain activity of 41700

Per the record, AQPSAGFGQPSTIGAKPNPFGAPAFGQPAQPAGPAFGQPSQPTTTAAFGQPSQ has transcriptional activation domain activity of 29900

Per the record, DTMIRLFVGWLEEDPSSDRVLPRVHLGEIGIPVKLDLSSPSAVLVVSRLLCSL has transcriptional activation domain activity of 74100

Per the record, LACIVVCVIVYVVLTLLPLFYRDCPYLTPMSGPLWRFLQAFQFVSIVSFRRIY has transcriptional activation domain activity of 41900

Per the record, WIPFTLSIIVVEIPYLLFFSTSLLCGIYWTAGLSNTPDAVGYFYLMIFFFIFW has transcriptional activation domain activity of 61600

Per the record, IYETVNTITELSCLLPGGPWFPHARELWWYASEPAGVRYVAVLLSPTLRSLRL has transcriptional activation domain activity of 69700

Per the record, IISARDAGNGEEAAAQNVLNCFEYQFPNLQTIQSLVHEQTLLSQLASSATPHS has transcriptional activation domain activity of 75200

----------
# Tested on: Saccharomyces cerevisiae
# assay explanation: transcriptional activation domain activity (GFP:mCherry ratio, weighted mean of sorted bins, harmonized to initial dataset scale) (arbitrary fluorescence ratio units); higher = stronger transcriptional activation
# test context: beta-estradiol 1 µM; induction time 4 h
Consider the following sequences; for each one, report its transcriptional activation domain activity.
Lab note: record just the number, no unit beside it.

Per the record, HSALSRSEVSGTGRKAYAQKGRGKARVGSLRAPHFRGGGRAFPVKPRDHSTKL has transcriptional activation domain activity of 17000

Per the record, GASTSAFGTPSALGAKPNPFGTPATGGAFGQPAAAPAFGQPTQPAGAFGQPAQ has transcriptional activation domain activity of 40300

Per the record, VCFMGVLIGLLPGTWLCYGSDVCVKGLSSSIISMQLGLLGSLLLILKLVIGVA has transcriptional activation domain activity of 61700

Per the record, MSGFVRLLFTFDFRNVLVDILVLHIPLYLFPLFVLSEEFLLLFSFCLFVFLSF has transcriptional activation domain activity of 31000

Per the record, MVHIRTVVSFIFLVAGVLWTLFYLFIYFCLWDRRGHYVFLFCFCGCSRFMHFV has transcriptional activation domain activity of 56500

Per the record, LLHPDKREPIDEDIWTVIPRGIRCEMMTFDLHIWLRRLVECLYKCLLENLVPT has transcriptional activation domain activity of 46600

Per the record, ILLMLATGQWRLLIDALVSMSDIEVQFFLRQLALCKLVNWKASIVNGYPSPVE has transcriptional activation domain activity of 52400

Per the record, VKHRVIHLLVVFVAFFFAVTPVYFDYLCCGSPLVLFSSTLGMIIHLILFFFCL has transcriptional activation domain activity of 49000

Per the record, DIFGQMKDFTERCHMYLDGNITLPISLHQKLVEIFSHLLCLIGMITRDMKRGW has transcriptional activation domain activity of 32500

Per the record, VCLNLLGGVVVCYCPGLLVIAAIEAPIRFKHIFTCSIHIHSLYLRLLFCALHA has transcriptional activation domain activity of 69200

Per the record, VAPLLLAGACCIAHHFMLVFLEGCTVQSEFWIRNANSAFSLLISALLASCVGT has transcriptional activation domain activity of 77100

Per the record, MLSLIWCFKAWLLTIISLPSYIILRTPLPFLFSSSPLFRSSPFHFFFTSLSTH has transcriptional activation domain activity of 48100

Per the record, AATSEATTVFWHDPSGFVDRLLGLTRFWFFTLLRYSYRVYFLASRERSRKPLS has transcriptional activation domain activity of 66100

Per the record, TMFHGLLFHLCHGAAVLVVWSFHHVVCSMRDDEETLQVMEELDYVIHVLNAFA has transcriptional activation domain activity of 47800

Per the record, MSTNERKKQRFVKSIHKEKKNTACCSSTNVIGTSKLSSPVIAVVVVVVVVCWG has transcriptional activation domain activity of 45100

Per the record, MNLSRYAVVLATQWGILIMLAMNQLCIPSFLTMFAYIPTKVLQFFHYFIVSLF has transcriptional activation domain activity of 47700

Per the record, KISALCCVLSVFKIDDLVNDPILNKVLHLNNIYLDVLISLILRNNQPTIELMV has transcriptional activation domain activity of 57900

Per the record, RRRRAKSRDPERVRERSERRASRSPEKKDKSARSKSRLGRLAAGAAAAGAAAI has transcriptional activation domain activity of 42800

Per the record, MGTLLLVFMHYGWTFFLDCCLWWYMMSLGFWYKVCLPLLLLDFHVYCHLWYMI has transcriptional activation domain activity of 53600

Per the record, KDDEKKDRHRSRRDRGDRDKEDERRRRKRRSRSRSNHRHGHERRRDRSRSREG has transcriptional activation domain activity of 17100

Per the record, TSRAPPSASPPTASHGAPTPPPPSPSSSPAPATPSSHPCPPTSSSSRPPSSPP has transcriptional activation domain activity of 41800

Per the record, MRIIIFMSLLLLKIIMILLLLLLRIKFNWFSFFSILKMLLSMKIMMLFLFLLL has transcriptional activation domain activity of 35900

Per the record, MSSSAASGPMGESSKRKAGSEAVAGSSSSSSISRDGKKAKLKPQDEATATGAA has transcriptional activation domain activity of 31400

Per the record, MFMGTLWLVIFHYGWAFFLDYCVWYFMISLCFWCEVCLPVLLPAFHVCCLLWC has transcriptional activation domain activity of 52400

Per the record, EYLDKLLAEFEEFDYSINRVLPDVIDFSALIGQDSSANNQIFSSEFSSDPTVN has transcriptional activation domain activity of 139000

Per the record, MLVLLLLLLLLLLLLFLLLPLLLLLPLLLCLYMPCIVRCSNHEVHILLISGTG has transcriptional activation domain activity of 72900

Per the record, TPLRISLFLVRVRCRHPSYSKWLPVEIKRCGVLLMSRLSLSLYRIFLNHITLN has transcriptional activation domain activity of 59900
